Data credit: PubChem BioAssay AID2060882

Give log10 IC50 for every item shown.
Test system: 898857-211-R-J1-PDC complex spheroids, growth % test/control;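 also: spheroids exposed to compound for seven days before readout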
Assay: Anticancer human tumor 898857-211-R-J1-PDC patient-derived melanoma cell line growth inhibition [RAS]
Details: curve of first compound; second compound 0.316 µM
A difference of one corresponds to tenfold IC50; all values are log10 with IC50 in nM.

// below: answered molecules
CC1(O)CCCC1n1c(=O)c(C(F)F)cc2cnc(NC3CCN(S(C)(=O)=O)CC3)nc21 (centres undefined) + C=CC(=O)N1CCN(c2nc(OCC3CCCN3C)nc3c(F)c(-c4nc(N)cc(C)c4C(F)(F)F)c(Cl)cc23)C(C)C1 | 2.50
C[C@@H](NC(=O)c1ncnc(N)c1Cl)c1ncc(C(=O)Nc2cc(C(F)(F)F)c(Cl)cn2)s1 + C=CC(=O)N1CCN(c2nc(OCC3CCCN3C)nc3c(F)c(-c4nc(N)cc(C)c4C(F)(F)F)c(Cl)cc23)C(C)C1 | 3.82
Nc1ccn(C2OC(CO)C(O)C2(F)F)c(=O)n1 (centres undefined) + C=CC(=O)N1CCN(c2nc(OCC3CCCN3C)nc3c(F)c(-c4nc(N)cc(C)c4C(F)(F)F)c(Cl)cc23)C(C)C1 | 0.86

Each of the following entries comes with a recorded value; kindly state log10 IC50 for each.
1. CCN1CCN(Cc2ccc(Nc3ncc(F)c(-c4cc(F)c5nc(C)n(C(C)C)c5c4)n3)nc2)CC1 + C#Cc1c(F)ccc2cc(O)cc(-c3ncc4c(N5CC6CCC(C5)N6)nc(OCC56CCCN5CC(F)C6)nc4c3F)c12
2. CC1(O)CCCC1n1c(=O)c(C(F)F)cc2cnc(NC3CCN(S(C)(=O)=O)CC3)nc21 (centres undefined) + C#Cc1c(F)ccc2cc(O)cc(-c3ncc4c(N5CC6CCC(C5)N6)nc(OCC56CCCN5CC(F)C6)nc4c3F)c12
3. CCc1c2c(nc3ccc(O)cc13)-c1cc3c(c(=O)n1C2)COC(=O)[C@]3(O)CC + C=CC(=O)N1CCN(c2nc(OCC3CCCN3C)nc3c(F)c(-c4nc(N)cc(C)c4C(F)(F)F)c(Cl)cc23)C(C)C1
4. C[C@@H](NC(=O)c1ncnc(N)c1Cl)c1ncc(C(=O)Nc2cc(C(F)(F)F)c(Cl)cn2)s1 + C#Cc1c(F)ccc2cc(O)cc(-c3ncc4c(N5CC6CCC(C5)N6)nc(OCC56CCCN5CC(F)C6)nc4c3F)c12
5. CCc1c2c(nc3ccc(O)cc13)-c1cc3c(c(=O)n1C2)COC(=O)[C@]3(O)CC + C#Cc1c(F)ccc2cc(O)cc(-c3ncc4c(N5CC6CCC(C5)N6)nc(OCC56CCCN5CC(F)C6)nc4c3F)c12
6. Nc1ccn(C2OC(CO)C(O)C2(F)F)c(=O)n1 (centres undefined) + C#Cc1c(F)ccc2cc(O)cc(-c3ncc4c(N5CC6CCC(C5)N6)nc(OCC56CCCN5CC(F)C6)nc4c3F)c12

### Response
1: 2.37; 2: 2.52; 3: 0.73; 4: 3.83; 5: 0.71; 6: 0.90

Each of the following entries comes with a recorded value; kindly state log10 IC50 for each.
1. CC(C)n1nc(-c2ccc3oc(N)nc3c2)c2c(N)ncnc21 + C#Cc1c(F)ccc2cc(O)cc(-c3ncc4c(N5CC6CCC(C5)N6)nc(OCC56CCCN5CC(F)C6)nc4c3F)c12
2. CCC(CC)c1cc(NC2CCC(N)C2)n2nccc2n1 (centres undefined) + C=CC(=O)N1CCN(c2nc(OCC3CCCN3C)nc3c(F)c(-c4nc(N)cc(C)c4C(F)(F)F)c(Cl)cc23)C(C)C1

### Response
[1.58, 3.11]
